These data points were gathered from ChEMBL document CHEMBL4385592.

Listing of entries alongside the reported Activity.
# Test system: Right cardiac atrium
# method_description: Negative chronotropic activity in guinea pig spontaneously beating right atrium assessed as decrease in atrial rate at 10^-5 M relative to control
# Type: ADME, tissue-based, Cavia porcellus
# Set-up: scale not given: the % may be the effect or the level left
# condition_context: 10 µM
readout_kind: Activity (%)

mol	numeric_result
CCOC(=O)C1=C(C)NC(C)=C(C(=O)OCC)C1c1c(-c2c(F)cccc2F)nc2sccn12	35
CCOC(=O)C1=C(C)NC(C)=C(C(=O)OCC)C1c1c(-c2ccc(F)cc2)nc2sc(Cl)cn12	83
C=CCOC(=O)C1=C(C)NC(C)=C(C(=O)OCC=C)C1c1c(-c2cc(OC)c([N+](=O)[O-])cc2OC)nc2sccn12	92
CCOC(=O)C1=C(C)NC(C)=C(C(=O)OCC)C1c1c(-c2ccc([N+](=O)[O-])cc2)nc2sc(F)cn12	20

###

# method_description: Selectivity ratio of EC50 for negative chronotropic activity in guinea pig spontaneously beating right atrium to EC50 for negative inotropic activity in guinea pig left atrium
# Assay type: ADME, tissue-based, Cavia porcellus

mol	Ratio EC50
CCOC(=O)C1=C(C)NC(C)=C(C(=O)OCC)C1c1c(-c2cc(OC)cc(OC)c2)nc2sc(Br)cn12	< 10
CCOC(=O)C1=C(C)NC(C)=C(C(=O)OCC)C1c1c(-c2cc(OC)ccc2OC)nc2sc(C)cn12	20
CCOC(=O)C1=C(C)NC(C)=C(C(=O)OCC)C1c1c(-c2ccc(F)cc2)nc2sc(Cl)cn12	25 to 56
CCOC(=O)C1=C(C)NC(C)=C(C(=O)OCC)C1c1c(-c2ccc(Cl)c([N+](=O)[O-])c2)nc2sc(C)cn12	25 to 56
CCOC(=O)C1=C(C)NC(C)=C(C(=O)OCC)C1c1c(-c2cc(OC)ccc2OC)nc2sc(Br)cn12	< 10
CCOC(=O)C1=C(C)NC(C)=C(C(=O)OCC)C1c1c(-c2ccc(F)c(F)c2)nc2sccn12	< 10
C=CCOC(=O)C1=C(C)NC(C)=C(C(=O)OCC=C)C1c1c(-c2cc(OC)c([N+](=O)[O-])cc2OC)nc2sccn12	95
CCOC(=O)C1=C(C)NC(C)=C(C(=O)OCC)C1c1c(-c2ccc(F)cc2)nc2sccn12	25 to 56
CCOC(=O)C1=C(C)NC(C)=C(C(=O)OCC)C1c1c(-c2cc(F)c(F)cc2F)nc2sccn12	< 10
COC(=O)C1=C(C)NC(C)=C(C(=O)OC)C1c1c(-c2cc(Br)c(OC)cc2OC)nc2sccn12	25 to 56

###

# System: Left cardiac atrium
# method_description: Negative inotropic activity in guinea pig left atrium assessed as decrease in developed tension at 5 x 10^-5 M relative to control
# Assay type: ADME, tissue-based, Cavia porcellus
# Design: scale not given: the % may be the effect or the level left
# condition_context: 50 µM

mol	Activity
CCOC(=O)C1=C(C)NC(C)=C(C(=O)OCC)C1c1c(-c2ccc(F)cc2)nc2sc(Br)cn12	37%
CCOC(=O)C1=C(C)NC(C)=C(C(=O)OCC)C1c1c(-c2cc([N+](=O)[O-])c(Cl)cc2Cl)nc2sc(Cl)cn12	86%
CCOC(=O)C1=C(C)NC(C)=C(C(=O)OCC)C1c1c(-c2ccc(Br)c([N+](=O)[O-])c2)nc2sccn12	53%
CCOC(=O)C1=C(C)NC(C)=C(C(=O)OCC)C1c1c(-c2ccccc2F)nc2sccn12	55%

###

# target_of_assay: Voltage-gated L-type calcium channel (Homo sapiens, UniProt Q13936+Q13698+Q01668+O60840)
# method_description: Inhibition of voltage-dependent L-type calcium channel in human SH-SY5Y cells assessed as protection against glutamate-induced excitotoxicity by measuring recovery of cell viability at 20 uM measured after 24 hrs by alamar blue-based fluorescence method relative to control

mol	censoring_sign	Activity, %
CCOC(=O)C1=C(C)NC(C)=C(C(=O)OCC)C1c1c(-c2cc(F)c(F)cc2F)nc2sccn12	=	54.7
CCOC(=O)C1=C(C)NC(C)=C(C(=O)OCC)C1c1c(-c2ccc([N+](=O)[O-])cc2)nc2sc(Cl)cn12	<	5
CCOC(=O)C1=C(C)NC(C)=C(C(=O)OCC)C1c1c(-c2cc([N+](=O)[O-])c(Cl)cc2Cl)nc2sc(Cl)cn12	=	40.7
CCOC(=O)C1=C(C)NC(C)=C(C(=O)OCC)C1c1c(-c2ccc(Cl)cc2)nc2sc(Cl)cn12	=	47.1

###

# target_of_assay: Voltage-gated L-type calcium channel (Homo sapiens, UniProt Q13936+Q13698+Q01668+O60840)
# method_description: Inhibition of voltage-dependent L-type calcium channel in human U373MG cells assessed as protection against oxygen glucose deprivation/reperfusion-induced injury by measuring recovery of cell viability at 20 uM administered at onset of reperfusion period measured after 16 hrs by alamar blue assay relative to control
# Type: cell-based
readout_kind: Activity (%)

mol	censoring_sign	numeric_result
CCOC(=O)C1=C(C)NC(C)=C(C(=O)OCC)C1c1c(-c2cc(OC)ccc2OC)nc2sc(C)cn12	<	5
COC(=O)C1=C(C)NC(C)=C(C(=O)OC)C1c1c(-c2c(OC)ccc(OC)c2[N+](=O)[O-])nc2sc(Cl)cn12	<	5
CCOC(=O)C1=C(C)NC(C)=C(C(=O)OCC)C1c1c(-c2cc(OC)ccc2OC)nc2sc(Br)cn12	=	29.32
COC(=O)C1=C(C)NC(C)=C(C(=O)OC)C1c1c(C(F)(F)F)nc2sc(C)cn12	<	5
CCOC(=O)C1=C(C)NC(C)=C(C(=O)OCC)C1c1c(-c2cc(OC)cc(OC)c2)nc2sc(Br)cn12	=	29.6
COC(=O)C1=C(C)NC(C)=C(C(=O)OC)C1c1c(-c2cc(OC)ccc2OC)nc2sccn12	=	96.7
CCOC(=O)C1=C(C)NC(C)=C(C(=O)OCC)C1c1c(-c2ccc(Br)c([N+](=O)[O-])c2)nc2sccn12	=	32.4
CCOC(=O)C1=C(C)NC(C)=C(C(=O)OCC)C1c1c(-c2cc([N+](=O)[O-])c(Cl)cc2Cl)nc2sc(CC)cn12	=	26.7

###

# target_of_assay: Voltage-gated L-type calcium channel (Homo sapiens, UniProt Q13936+Q13698+Q01668+O60840)
# method_description: Inhibition of voltage-dependent L-type calcium channel in human U373MG cells assessed as protection against oxygen glucose deprivation/reperfusion-induced injury by measuring recovery of cell viability at 20 uM administered at onset of reperfusion period measured after 16 hrs by alamar blue assay relative to control
# Assay type: cell-based
readout_kind: Activity

mol	target_of_assay	result
CCOC(=O)C1=C(C)NC(C)=C(C(=O)OCC)C1c1c(-c2c(F)cccc2F)nc2sccn12	Voltage-gated L-type calcium channel (Homo sapiens, UniProt Q13936+Q13698+Q01668+O60840)	< 5%
CCOC(=O)C1=C(C)NC(C)=C(C(=O)OCC)C1c1c(-c2ccc(Cl)cc2)nc2sccn12	Voltage-gated L-type calcium channel (Homo sapiens, UniProt Q13936+Q13698+Q01668+O60840)	< 5%
COC(=O)C1=C(C)NC(C)=C(C(=O)OC)C1c1c(C(F)(F)F)nc2sccn12	Voltage-gated L-type calcium channel (Homo sapiens, UniProt Q13936+Q13698+Q01668+O60840)	86.7%
COC(=O)C1=C(C)NC(C)=C(C(=O)OC)C1c1c(-c2cc(OC)c([N+](=O)[O-])cc2OC)nc2sccn12	Voltage-gated L-type calcium channel (Homo sapiens, UniProt Q13936+Q13698+Q01668+O60840)	< 5%
CCOC(=O)C1=C(C)NC(C)=C(C(=O)OCC)C1c1c(-c2ccc(F)c(F)c2)nc2sccn12	Voltage-gated L-type calcium channel (Homo sapiens, UniProt Q13936+Q13698+Q01668+O60840)	< 5%
CCOC(=O)C1=C(C)NC(C)=C(C(=O)OCC)C1c1c(-c2cc(F)c(F)cc2F)nc2sccn12	Voltage-gated L-type calcium channel (Homo sapiens, UniProt Q13936+Q13698+Q01668+O60840)	30.6%
CCOC(=O)C1=C(C)NC(C)=C(C(=O)OCC)C1c1c(-c2ccccc2F)nc2sccn12	Voltage-gated L-type calcium channel (Homo sapiens, UniProt Q13936+Q13698+Q01668+O60840)	36.8%
CCOC(=O)C1=C(C)NC(C)=C(C(=O)OCC)C1c1c(-c2ccc(OC)c(OC)c2)nc2sc(Br)cn12	Voltage-gated L-type calcium channel (Homo sapiens, UniProt Q13936+Q13698+Q01668+O60840)	55.1%

###

# Tested on: Left cardiac atrium
# method_description: Negative inotropic activity in guinea pig left atrium assessed as decrease in developed tension at 5 x 10^-6 M relative to control
# Type: ADME, tissue-based, Cavia porcellus
# Parameters: scale not given: the % may be the effect or the level left
# condition_context: 5 µM
Sorting guide: entries reporting Activity beneath 60% go in the true pile, the rest go in the false pile.

mol	cat
C=CCOC(=O)C1=C(C)NC(C)=C(C(=O)OCC=C)C1c1c(-c2cc(OC)c([N+](=O)[O-])cc2OC)nc2sccn12	false
CCOC(=O)C1=C(C)NC(C)=C(C(=O)OCC)C1c1c(-c2cc(OC)ccc2OC)nc2sc(Br)cn12	false
CCOC(=O)C1=C(C)NC(C)=C(C(=O)OCC)C1c1c(-c2ccc(F)cc2)nc2sccn12	false
CCOC(=O)C1=C(C)NC(C)=C(C(=O)OCC)C1c1c(-c2ccc(Cl)c([N+](=O)[O-])c2)nc2sc(C)cn12	false
CCOC(=O)C1=C(C)NC(C)=C(C(=O)OCC)C1c1c(-c2ccc(OC)c(OC)c2)nc2sc(Br)cn12	true
COC(=O)C1=C(C)NC(C)=C(C(=O)OC)C1c1c(-c2cc(Br)c(OC)cc2OC)nc2sccn12	false
